Consider the following compounds and their measured Emax readings.
Biological target: F876L mutant Androgen Receptor (AR-F876L) (Homo sapiens, UniProt P10275, F877L)
Construct: expressed in transfected cells; host or cells: LNCaP
Sequence (P10275 whole entry F877L): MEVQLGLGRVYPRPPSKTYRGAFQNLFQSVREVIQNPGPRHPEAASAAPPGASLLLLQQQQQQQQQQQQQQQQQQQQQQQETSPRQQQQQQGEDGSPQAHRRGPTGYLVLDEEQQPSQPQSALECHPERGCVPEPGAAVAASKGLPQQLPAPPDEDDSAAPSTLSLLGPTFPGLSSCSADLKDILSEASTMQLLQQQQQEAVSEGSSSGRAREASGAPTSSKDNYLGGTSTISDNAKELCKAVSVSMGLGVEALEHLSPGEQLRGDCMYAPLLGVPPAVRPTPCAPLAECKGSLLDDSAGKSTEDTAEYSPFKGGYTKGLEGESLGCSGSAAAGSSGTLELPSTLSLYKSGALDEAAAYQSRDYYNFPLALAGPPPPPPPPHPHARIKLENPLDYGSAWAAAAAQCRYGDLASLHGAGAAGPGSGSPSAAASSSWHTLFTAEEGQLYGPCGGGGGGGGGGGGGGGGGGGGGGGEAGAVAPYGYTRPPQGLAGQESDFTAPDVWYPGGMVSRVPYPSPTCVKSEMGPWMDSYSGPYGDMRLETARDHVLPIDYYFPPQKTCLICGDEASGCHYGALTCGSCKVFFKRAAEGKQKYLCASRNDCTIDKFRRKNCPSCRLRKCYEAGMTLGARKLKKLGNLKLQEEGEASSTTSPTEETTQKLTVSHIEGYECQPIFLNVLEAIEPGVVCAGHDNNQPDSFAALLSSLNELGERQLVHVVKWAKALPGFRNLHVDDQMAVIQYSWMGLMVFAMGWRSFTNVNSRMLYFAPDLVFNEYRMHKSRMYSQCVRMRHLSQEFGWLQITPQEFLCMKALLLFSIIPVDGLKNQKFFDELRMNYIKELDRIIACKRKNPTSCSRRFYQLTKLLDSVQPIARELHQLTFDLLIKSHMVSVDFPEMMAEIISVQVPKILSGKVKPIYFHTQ
Assay: AR reporter assay, LNCaP-AR-F876L AG (agonist mode)
Format: cell-based
Settings: read-out: LNCaP-AR-F876L AG MAX % Stim
Where a name gives a salt, the structure may show the parent alone.
Dear colleague, please return just the value in %, with no unit written.

# compound, outputUnit, Emax
records = [
    ("CN1CCC(Oc2ccc(N3C(=S)N(c4ccc(C#N)c(C(F)(F)F)c4)C(=O)C3(C)C)cn2)CC1 [Compound 4, hydrochloride]", "%", 0.1),
    ("N#Cc1ccc(N2C(=O)C3(CCC3)N(c3ccc(OC4CCNCC4)cc3)C2=S)cc1C(F)(F)F [Compound 11]", "%", 0.1),
    ("N#Cc1ccc(N2C(=O)C3(CCC3)N(c3ccc(OC4CCNCC4)nc3)C2=S)cc1Cl [Compound 23, hydrochloride]", "%", 0.3),
]

The record that follows has no Emax shown yet.
Report its Emax with F876L mutant Androgen Receptor (AR-F876L) (Homo sapiens, UniProt P10275, F877L) as the test system: Cc1cc(N2C(=O)C3(CCC3)N(c3ccc(OC4CCN(C)CC4)cc3)C2=S)ccc1C#N [Compound 17]
0.2
